B1: SOAT1 (parent)
chain: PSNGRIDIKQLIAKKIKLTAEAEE

Variants of: B1
protocol.notes: protein stability index of a GFP-peptide fusion (GPS, HEK-293T) (PSI 1-6); higher = more stable;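 also: lentivirally expressed fusions sorted by FACS into six bins by GFP to DsRed ratio, PSI derived from sequencing read proportions per bin multiplied by bin number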
conditions: c terminus: a fixed tail appended
Catalogue of variants with associated protein stability index
measured.endpoint: protein stability index

seq	measured.endpoint	observed.value
PSNGRIDIKQLIYKKIKLTAEAEE [A13Y]	protein stability index	2.97
PSNGRITIKQLIAKKIKLTAEAEE [D7T]	protein stability index	2.97
PVNGRIDIKQLIAKKIKLTAEAEE [S2V]	protein stability index	2.96
PSNGRIDIKQLIAKKIKLTAEAEN [E24N]	protein stability index	3.07
PSNGRIRIKQLIAKKIKLTAEAEE [D7R]	protein stability index	2.94
PSNGRIDIKQLIAKKIKLTAEAEK [E24K]	protein stability index	2.98
PSNGRIDIKQLIAKKIKLTAEAGE [E23G]	protein stability index	2.98
PSNGRIDIKQLIFKKIKLTAEAEE [A13F]	protein stability index	2.94

Reference for the values: the supplement of paper PMC10567573
